TARGET: Gal(b1-3)GalNAc(a1-3)[Fuc(a1-2)]Gal(b1-4)GlcNAc
ASSAY COMMENT: glycan array binding signal (z-score within array); higher = stronger binding
RECORDED CONDITIONS: glycan notation: IUPAC condensed, linker removed
Only a selection was taken, and the strongest signals are over-represented in it overall.
ASSAY METRIC: glycan array binding signal (z-score)
API note: the answer field is a bare number with no unit suffix.

Task: // glycan array binding signal (z-score) lookup, key: Gal 4 (Homo sapiens), Q8K419 (protein) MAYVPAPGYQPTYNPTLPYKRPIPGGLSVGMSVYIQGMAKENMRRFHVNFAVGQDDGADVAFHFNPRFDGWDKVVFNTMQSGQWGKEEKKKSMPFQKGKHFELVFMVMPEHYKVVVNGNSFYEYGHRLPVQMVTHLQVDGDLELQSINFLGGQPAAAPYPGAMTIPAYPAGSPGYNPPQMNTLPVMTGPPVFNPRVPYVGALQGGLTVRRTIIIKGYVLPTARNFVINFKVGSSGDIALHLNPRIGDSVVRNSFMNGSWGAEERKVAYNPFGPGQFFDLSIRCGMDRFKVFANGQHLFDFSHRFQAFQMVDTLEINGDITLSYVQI
Output: 2.3

Task: // glycan array binding signal (z-score) lookup, key: VLRB.aGPA.23-GCN4-biotin (Petromyzon marinus) (protein) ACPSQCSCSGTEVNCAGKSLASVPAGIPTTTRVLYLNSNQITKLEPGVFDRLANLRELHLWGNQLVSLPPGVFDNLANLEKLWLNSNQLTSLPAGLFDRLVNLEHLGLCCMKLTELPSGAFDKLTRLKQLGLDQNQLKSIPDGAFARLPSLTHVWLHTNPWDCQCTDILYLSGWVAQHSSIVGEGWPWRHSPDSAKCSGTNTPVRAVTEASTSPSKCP
Output: -0.083

Task: // glycan array binding signal (z-score) lookup, key: Clec12b (Mus musculus), Q149M0 (protein) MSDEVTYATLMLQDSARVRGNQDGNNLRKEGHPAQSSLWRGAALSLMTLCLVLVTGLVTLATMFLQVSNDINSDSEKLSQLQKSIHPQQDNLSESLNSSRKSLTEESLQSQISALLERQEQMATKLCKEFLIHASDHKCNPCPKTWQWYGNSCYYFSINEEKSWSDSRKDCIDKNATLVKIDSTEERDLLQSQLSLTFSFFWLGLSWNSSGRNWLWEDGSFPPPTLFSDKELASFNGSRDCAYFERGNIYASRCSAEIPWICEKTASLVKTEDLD
Output: -0.587

Task: // glycan array binding signal (z-score) lookup, key: Gal 3 (Homo sapiens), P17931 (protein) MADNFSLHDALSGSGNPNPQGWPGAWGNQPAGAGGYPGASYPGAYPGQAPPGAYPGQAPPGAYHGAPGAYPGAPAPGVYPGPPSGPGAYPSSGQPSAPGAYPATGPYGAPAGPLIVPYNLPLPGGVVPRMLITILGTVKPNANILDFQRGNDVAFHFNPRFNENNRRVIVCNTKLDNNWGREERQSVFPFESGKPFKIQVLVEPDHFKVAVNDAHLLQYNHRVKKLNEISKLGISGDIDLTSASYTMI
Output: 2.57
